# assayDetails: Inhibition of recombinant human GST-tagged EGFR L858R mutant cytoplasmic domain expressed in baculovirus expression system using FAM-labeled peptide as substrate after 10 mins by mobility shift assay
observable: log10 IC50 (log10 of the value in µM)
Values are log10 of IC50 in µM.

# annotated cases, reported log10 IC50 shown
{"columns": ["smilesEntry", "log10 IC50"],
 "data": [
  ["CCOC(=O)CCC(=O)Nc1cc(Nc2cccc(Br)c2)ncn1", 0.13],
  ["O=C(Nc1cc(Nc2ccc(Cl)cc2)ncn1)c1ccc(F)cc1", 0.21],
  ["COc1ccc(OC)c(Nc2cc(Nc3ccc(S(N)(=O)=O)cc3)ncn2)c1", -0.21],
  ["COc1cccc(Nc2cc(Nc3cccc(Cl)c3)ncn2)c1", 0.20],
  ["COc1ccc(OC)c(Nc2cc(Nc3ccc(N4CCN(C)CC4)cc3)ncn2)c1", -0.78]
]}

Bench note: what log10 IC50 did CCOC(=O)c1ccc(Nc2cc(Nc3cccc(OC)c3)ncn2)cc1 show?
0.24

Bench note: what log10 IC50 did COc1cccc(Nc2cc(NC(=O)CCCC(=O)O)ncn2)c1 show?
-1.51

Bench note: what log10 IC50 did O=C(O)CCCC(=O)Nc1cc(Nc2ccc(Cl)cc2)ncn1 show?
0.12

Bench note: what log10 IC50 did COc1ccc(Nc2cc(NC(=O)c3ccccc3)ncn2)cc1 show?
-1.22

Bench note: what log10 IC50 did CCOC(=O)c1ccc(Nc2cc(NC(=O)CCCC(=O)O)ncn2)cc1 show?
-1.16

Bench note: what log10 IC50 did CCOc1ccc(Nc2cc(NC(=O)c3ccccc3)ncn2)cc1 show?
0.08

Bench note: what log10 IC50 did O=C(O)CCCC(=O)Nc1cc(N2CCOCC2)ncn1 show?
-1.57

Bench note: what log10 IC50 did O=C(O)CCCC(=O)Nc1cc(Nc2ccccc2)ncn1 show?
-0.74

Bench note: what log10 IC50 did COc1ccc(OC)c(Nc2cc(NCCc3cccs3)ncn2)c1 show?
-0.78

Bench note: what log10 IC50 did COc1ccc(OC)c(Nc2cc(Nc3ccc(F)cc3)ncn2)c1 show?
-0.64

Bench note: what log10 IC50 did COc1cccc(Nc2cc(Nc3ccc(S(N)(=O)=O)cc3)ncn2)c1 show?
0.27

Taken from BindingDB's records for doi:10.1016/j.ejmech.2018.08.031.
